The values you see were collected from paper PMC9785492.

Test system: A/FM-1/1/47 (H1N1)
Test: microbe, parasite or virus in culture
Assay type: cell-based
Details: Influenza A virus, H1N1, MDCK
pIC50: −log10 of the molar value.

| Compound | pIC50 |
| --- | --- |
| COC(=O)C1=C(C)NC(C)=C(C(=O)OCC(C)C)C1c1ccccc1[N+](=O)[O-] (stereo not shown) | 5.16 |

====

Test system: H5N1 pseudovirus A/Anhui/1/2005
Assay: organism not typed
Type: cell-based, H5N1 IAV
pIC50: −log10 of the molar value.

| Molecule | pIC50 |
| --- | --- |
| COC(=O)C1=C(C)NC(C)=C(C(=O)OCC(C)C)C1c1ccccc1[N+](=O)[O-] (stereo not shown) [Nisoldipine] | 5.59 |

====

Test: Cytotoxicity MTT assay
Conditions: dog, MDCK cells
List of CC50 at 48 h values.

| Compound | CC50 at 48 h |
| --- | --- |
| CC(=O)N[C@H]1[C@H]([C@H](O)[C@H](O)CO)OC(C(=O)O)=C[C@@H]1N=C(N)N | > 0.2 µM |
| COC(=O)C1=C(C)NC(C)=C(C(=O)OCC(C)C)C1c1ccccc1[N+](=O)[O-] (stereo not shown) | > 200 µM |
| CCOC(=O)C1=C(C)NC(C)=C(C(=O)OC)C1c1cccc([N+](=O)[O-])c1 (stereo not shown) | 171 µM |
| COCCOC(=O)C1=C(C)NC(C)=C(C(=O)OC(C)C)C1c1cccc([N+](=O)[O-])c1 (stereo not shown) | > 200 µM |

====

Tested on: A/Aichi/2/68 (H3N2)
Test: microbe, parasite or virus in culture
Type: cell-based
Conditions: Influenza A virus, H3N2, MDCK
pIC50: −log10 of the molar value.

| Compound | pIC50 |
| --- | --- |
| COC(=O)C1=C(C)NC(C)=C(C(=O)OCC(C)C)C1c1ccccc1[N+](=O)[O-] (stereo not shown) | 5.25 |

====

Experiment: in vitro
Details: dog
Observation Type: CC50 at 48 h

| Molecule | Obs Value |
| --- | --- |
| COCCOC(=O)C1=C(C)NC(C)=C(C(=O)OC/C=C/c2ccccc2)C1c1cccc([N+](=O)[O-])c1 (stereo not shown) [Cilnidipine] | > 200 µM |
